Just for reference, patent US9828352B2 is where these values come from.

biological target: human-D3R (Homo sapiens, UniProt P35462); assay: D3 Dopamine Receptor (D3dR) cellular assay, cAMP HTRF functional assay in human-D3R expressing CHO cells; settings: cAMP assay, CHO human-D3R; one experiment in duplicate
Sequence (P35462 whole entry): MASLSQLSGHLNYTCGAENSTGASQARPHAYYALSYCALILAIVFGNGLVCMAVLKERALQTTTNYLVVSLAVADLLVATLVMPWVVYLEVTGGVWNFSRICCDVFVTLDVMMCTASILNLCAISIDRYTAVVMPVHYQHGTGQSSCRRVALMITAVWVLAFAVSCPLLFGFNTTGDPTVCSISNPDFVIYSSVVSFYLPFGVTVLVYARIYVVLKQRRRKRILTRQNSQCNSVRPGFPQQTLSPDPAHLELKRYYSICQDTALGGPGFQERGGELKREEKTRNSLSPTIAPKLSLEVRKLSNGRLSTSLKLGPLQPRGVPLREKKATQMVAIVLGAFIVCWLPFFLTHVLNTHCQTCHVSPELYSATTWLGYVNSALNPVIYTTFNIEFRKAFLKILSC
pEC50: −log10 of the molar value. Where a name gives a salt, the structure may show the parent alone.
# pEC50 >= 7 gives label 1, anything below gives label 0

O=C(NCCCN1CCN(c2ccccc2C(F)(F)F)CC1)Oc1ccc(N2CCC(F)(F)CC2)cc1 [Example 18, hydrochloride]    label 0
COc1ccccc1N1CCN(CCCCNC(=O)Oc2ccc3c(c2)[nH]c2ccccc23)CC1 [Example 33]    label 1
NC(=O)c1cccc(-c2ccc(OC(=O)NCCCCN3CCN(c4ccccc4)CC3)cc2)c1 [Example 25]    label 1

Could you verify whether the entry Cc1ccccc1N1CCN(CCCNC(=O)Oc2ccc(-c3ccccc3)cc2)CC1 [Example 15] shows pEC50 of no less than 7?
label 0

Could you verify whether the entry NC(=O)c1cccc(-c2cccc(OC(=O)NCCCCN3CCC(c4ccccc4)CC3)c2)c1 [Example 14, hydrochloride] shows pEC50 of no less than 7?
label 1

Could you verify whether the entry O=C(NCCCN1CCN(c2ccccc2C(F)(F)F)CC1)Oc1ccc(-c2ccccc2)cc1 [Example 16] shows pEC50 of no less than 7?
label 0

Could you verify whether the entry O=C(NCCCCN1CCN(c2cccc(Cl)c2Cl)CC1)Oc1cccc(N2CCC(F)(F)CC2)c1 [Example 9, hydrochloride] shows pEC50 of no less than 7?
label 1
